# Ki per record follows
- Measurement Target: human GlyT1c transporter (Homo sapiens (Human))
- Sequence (P48067 whole entry): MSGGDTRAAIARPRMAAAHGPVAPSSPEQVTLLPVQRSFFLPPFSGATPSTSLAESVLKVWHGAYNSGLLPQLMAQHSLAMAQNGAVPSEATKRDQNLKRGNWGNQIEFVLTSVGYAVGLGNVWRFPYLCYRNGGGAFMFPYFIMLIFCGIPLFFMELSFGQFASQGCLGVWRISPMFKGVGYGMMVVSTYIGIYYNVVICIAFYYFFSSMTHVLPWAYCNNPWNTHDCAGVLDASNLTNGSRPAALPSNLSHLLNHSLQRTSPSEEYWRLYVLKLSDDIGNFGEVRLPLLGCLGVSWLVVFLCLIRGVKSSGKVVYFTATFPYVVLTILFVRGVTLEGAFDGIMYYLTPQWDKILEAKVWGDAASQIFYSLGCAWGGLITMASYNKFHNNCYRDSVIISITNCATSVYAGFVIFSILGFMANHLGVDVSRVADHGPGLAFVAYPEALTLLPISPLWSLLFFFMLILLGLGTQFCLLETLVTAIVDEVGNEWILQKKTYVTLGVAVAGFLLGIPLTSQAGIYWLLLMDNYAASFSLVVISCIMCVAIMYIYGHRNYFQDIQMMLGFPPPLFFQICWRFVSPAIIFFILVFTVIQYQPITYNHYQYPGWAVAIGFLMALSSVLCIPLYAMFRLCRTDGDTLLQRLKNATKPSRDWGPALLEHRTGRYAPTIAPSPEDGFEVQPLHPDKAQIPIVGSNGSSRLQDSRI
- Protocol: Radioligand binding assay using recombinant CHO cell membranes expressing human GlyT1
- Run Conditions: human GlyT1c-expressing CHO cell membranes; read-out: radioligand binding Kiapp
Where a name gives a salt, the structure may show the parent alone.

Molecule	Ki
CCCS(=O)(=O)NCCOc1ccc2c(c1)C(Cc1cccc(F)c1)C(N)CC2 (stereo not shown) [Example 107, hydrochloride]	≤ 0.1 µM
CCOC(=O)NC1CCc2ccc(OCCNS(=O)(=O)c3cccs3)cc2C1Cc1ccc(Cl)cc1Cl (stereo not shown)	≤ 10 µM
Cn1cnc(S(=O)(=O)NCc2ccc3c(c2)C(Cc2ccccc2)C(N2CCC2)CC3)c1 (single isomer, unassigned; enantiomer 1) [Example 252]	≤ 0.01 µM
NC1CCc2ccc(OCCNS(=O)(=O)CC3CC3)cc2C1Cc1cccc(F)c1 (stereo not shown) [Example 235, hydrochloride]	≤ 0.01 µM
CCCS(=O)(=O)NCCOc1ccc2c(c1)C(Cc1ccccc1Cl)C(N)CC2 (stereo not shown) [Example 293, hydrochloride]	≤ 1 µM
CCOC(=O)NC1CCc2ccc(OCCNS(=O)(=O)c3cn(C)cn3)cc2C1Cc1cccc(Cl)c1 (stereo not shown)	≤ 1 µM
O=S(=O)(NCc1ccc2c(c1)C(Cc1ccccc1)C(N1CCOCC1)CC2)C1CCC1 (stereo not shown)	≤ 1 µM
